From: patent US11001872B2

test system: protein sample; test: Protein quality control screen: melting point temperature vs pH and NaCl concentration; assay type: physicochemical; conditions: pH 9; NaCl Concentration 0.5
MEASURED ATTRIBUTE: protein melting point temperature (°C)
Express the result in °C but write the number alone.

Exercise: Given the entry [Cl-].[Na+] [sodium chloride] , report its measured protein melting point temperature.
Solution: 75.5
